Each recorded value in this set is attributed to patent US20240358755A1.

target: T1, HLA-A*02:01 (human)
T1 construct: Peptide-receptive MHC class I monomer in the UV-ligand exchange assay
protocol_notes: UV peptide exchange, anti-b2m ELISA; exchange yield grade
experimental_endpoint: peptide exchange yield

As a guide, the following entries are already answered.
{"columns": ["binder", "peptide exchange yield"],
 "data": [
  ["SLQESLPNA", "50 to 75%"],
  ["IIIDRILLL", "≥ 75%"],
  ["FLLLEKGGEL", "≥ 75%"]
]}

What does the data say about its peptide exchange yield? Entry: "LLDSWNILI"
≥ 75%
